Tested on: MCF7 (human breast adenocarcinoma) cell lines
Test protocol: MTT cytotoxicity assay, MCF7
Type: cell-based
Condition: MCF7 cells, triplicates
Measured IC50 values are reported for all entries that follow.
Please report the result as a number followed by the unit.

Use these answered entries as a reference point.
>  <Chem smiles>
O=C1Nc2ccccc2C1=NN=Cc1c(F)cccc1Cl

>  <IC50>
3.56 µM

$$$$
>  <Chem smiles>
O=C1Nc2ccccc2C1=NN=Cc1cccc(Br)c1

>  <IC50>
9.07 µM

$$$$

Please look up its IC50: Cc1ccc(C=NN=C2C(=O)Nc3ccccc32)cc1
32.5 µM

====

Measured quantity: melting point

Example cases with answers are listed next.
>  <Chem smiles>
Cc1ccc(C=NN=C2C(=O)Nc3ccccc32)cc1

>  <Reported measurement>
230 to 231 °C

$$$$
>  <Chem smiles>
O=C1Nc2ccccc2C1=NN=Cc1cccc(Br)c1

>  <Reported measurement>
182 to 183 °C

$$$$
>  <Chem smiles>
Cc1cccc(C=NN=C2C(=O)Nc3ccccc32)c1

>  <Reported measurement>
183 to 184 °C

$$$$
>  <Chem smiles>
O=C1Nc2ccccc2C1=NN=Cc1ccccc1Br

>  <Reported measurement>
233 to 234 °C

$$$$

Param item = COc1cc(C)c(C=NN=C2C(=O)Nc3ccccc32)c(C)c1 ; retrieve measured melting point.
251 to 252 °C

Same question, COc1ccc(C=NN=C2C(=O)Nc3ccccc32)c(O)c1 this time
242 to 243 °C
